B1: VPS39 (parent)
chain: QQVKCIITEEKVCMVCKKKIGNSA

Variants of: B1
assayProcedure: protein stability index of a GFP-peptide fusion (GPS, HEK-293T) (PSI 1-6); higher = more stable;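 note: lentivirally expressed fusions sorted by FACS into six bins by GFP to DsRed ratio, PSI derived from sequencing read proportions per bin multiplied by bin number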
conditionInfo: c terminus: a fixed tail appended
# cutoff 3 applies to protein stability index; >= gives label 1, < gives label 0

• K18H = label 1
• E10L = label 0
• A24Q = label 0
• T8V = label 0
• E10F = label 0
• G21Q = label 0
• K19D = label 1
• V3H = label 1
• E10Q = label 0
• I6T = label 1
• I6R = label 0
• V15M = label 0
• E9P = label 0
• K19W = label 0
• E9A = label 0
• C13R = label 1
• K11N = label 0
• C13V = label 0
• E10G = label 0
• V12M = label 0
• I20P = label 1
• C16W = label 0
• I6L = label 0
• Q2G = label 0
• S23Y = label 0
• K18M = label 0
• S23V = label 0
• Q2E = label 1
• Q2T = label 0
• I7W = label 0
• K4W = label 0
• C13D = label 1
• V3I = label 0
• E9H = label 0
• C5E = label 1
• A24M = label 0
• K19N = label 0
• Q1P = label 0
• Q1D = label 1
• M14N = label 0
• G21W = label 0
• I7D = label 1
• V12E = label 1
• E10D = label 0
• G21L = label 0
• Q2K = label 0
• K18D = label 1
• K18T = label 0
• K11W = label 0
• V3F = label 0
• N22K = label 0
• C16A = label 1
• C16T = label 1
• C5L = label 0
• C5D = label 1
• Q1I = label 0
• I6Y = label 0
• V15S = label 1
• Q1E = label 0
• V12D = label 1
• M14W = label 0
• Q1T = label 0
